Sourced from patent US5688913A

Here the recorded RELATIVE POTENCY (relative peptide inhibition of VLA-4 binding CS-1) is given for each entry.
subject-of-test: VLA-4 (Homo sapiens, UniProt P05556+P13612)
Sequence (P13612 34-1032): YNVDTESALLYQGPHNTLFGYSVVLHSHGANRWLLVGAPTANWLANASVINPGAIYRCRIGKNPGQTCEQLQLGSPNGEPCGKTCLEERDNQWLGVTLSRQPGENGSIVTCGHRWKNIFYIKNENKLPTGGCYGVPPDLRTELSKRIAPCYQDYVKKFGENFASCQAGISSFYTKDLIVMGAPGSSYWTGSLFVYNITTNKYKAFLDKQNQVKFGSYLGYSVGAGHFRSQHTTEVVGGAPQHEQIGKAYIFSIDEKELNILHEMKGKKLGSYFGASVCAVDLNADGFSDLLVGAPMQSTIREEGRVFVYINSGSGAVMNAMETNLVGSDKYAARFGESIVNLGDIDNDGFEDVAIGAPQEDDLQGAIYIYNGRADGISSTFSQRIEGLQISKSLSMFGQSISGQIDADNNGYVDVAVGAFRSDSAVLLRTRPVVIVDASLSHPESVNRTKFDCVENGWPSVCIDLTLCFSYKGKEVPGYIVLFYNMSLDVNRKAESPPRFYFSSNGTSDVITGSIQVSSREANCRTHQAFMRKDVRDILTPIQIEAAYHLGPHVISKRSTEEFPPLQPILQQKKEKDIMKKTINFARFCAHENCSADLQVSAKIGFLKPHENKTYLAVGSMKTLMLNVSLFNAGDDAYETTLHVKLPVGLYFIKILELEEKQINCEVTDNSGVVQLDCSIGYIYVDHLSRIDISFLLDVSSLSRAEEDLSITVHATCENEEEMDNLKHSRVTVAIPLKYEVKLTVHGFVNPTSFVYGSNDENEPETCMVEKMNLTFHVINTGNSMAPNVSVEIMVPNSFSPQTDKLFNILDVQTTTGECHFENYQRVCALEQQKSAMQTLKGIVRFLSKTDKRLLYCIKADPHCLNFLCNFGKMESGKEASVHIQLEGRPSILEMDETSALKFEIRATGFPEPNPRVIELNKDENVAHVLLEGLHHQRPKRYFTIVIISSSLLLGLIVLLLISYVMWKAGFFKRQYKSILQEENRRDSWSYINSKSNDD
Sequence (P05556 21-798): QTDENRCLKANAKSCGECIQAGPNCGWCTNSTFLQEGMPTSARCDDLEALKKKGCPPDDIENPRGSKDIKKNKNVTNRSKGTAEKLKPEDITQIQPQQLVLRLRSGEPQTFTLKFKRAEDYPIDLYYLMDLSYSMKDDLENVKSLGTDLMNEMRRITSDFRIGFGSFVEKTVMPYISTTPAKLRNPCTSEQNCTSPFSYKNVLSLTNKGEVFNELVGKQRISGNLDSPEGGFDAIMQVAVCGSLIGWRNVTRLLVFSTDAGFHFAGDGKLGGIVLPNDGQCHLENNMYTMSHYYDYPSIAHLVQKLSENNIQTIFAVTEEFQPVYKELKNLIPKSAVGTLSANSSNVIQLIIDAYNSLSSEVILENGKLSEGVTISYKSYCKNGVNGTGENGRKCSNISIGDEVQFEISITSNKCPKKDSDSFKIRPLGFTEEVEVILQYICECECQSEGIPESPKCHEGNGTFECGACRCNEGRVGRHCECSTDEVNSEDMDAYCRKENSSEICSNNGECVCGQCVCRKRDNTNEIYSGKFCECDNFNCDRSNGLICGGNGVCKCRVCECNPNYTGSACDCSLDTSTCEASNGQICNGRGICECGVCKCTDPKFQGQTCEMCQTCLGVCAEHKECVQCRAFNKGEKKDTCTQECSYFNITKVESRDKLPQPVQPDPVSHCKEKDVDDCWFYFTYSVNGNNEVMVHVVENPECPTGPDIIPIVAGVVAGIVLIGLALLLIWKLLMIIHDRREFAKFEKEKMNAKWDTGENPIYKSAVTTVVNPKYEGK
protocol-text: cell-based
Type: cell-based
Parameters: host or cells: Jurkat (human T lymphoblastic line)
measurement-setup: normalized IC50 relative to standard peptide of SEQ ID NO:3 (=1); about one-tenth or less of the standard is assigned zero
Square brackets hold non-standard residues; d marks the D form. Peptide text beside a SMILES is read from it. * marks the point of attachment. Morpholide = C1CN(*)CCO1; Pyrrolidide = C1CCN(*)C1; PhAc = O=C(Cc1ccccc1)*
// no unit string in output, number only

Some compounds with known RELATIVE POTENCY (relative peptide inhibition of VLA-4 binding CS-1) results, for comparison:
compound: CC(C)C[C@H](NC(=O)Cc1ccccc1)C(=O)N[C@@H](CC(=O)O)C(=O)N[C@@H](Cc1ccccc1)C(=O)N1CCCC1 [X L D F Z phenylacetyl pyrrolidinamide] (PhAc-Leu-Asp-Phe-Pyrrolidide)
meas-value: 250

compound: CC(C)C[C@H](NC(=O)Cc1ccccc1)C(=O)N[C@@H](CC(=O)O)C(=O)N[C@@H](Cc1ccc(O)cc1)C(=O)N1CCC[C@@H]1C(N)=O [X L D Y p phenylacetyl amide, N-phenylacetyl-Leu-Asp-Tyr-D-Pro-NH2] (PhAc-LDY[dP]-NH2)
meas-value: 640

compound: CC(C)C[C@H](NC(=O)Cc1ccccc1)C(=O)N[C@@H](CC(=O)O)C(=O)N[C@H](C(=O)N1CCC[C@@H]1C(N)=O)C(C)C [X L D V p phenylacetyl amide, N-phenylacetyl-Leu-Asp-Val-D-Pro-NH2]
meas-value: 106

The compound listed as CC(C)C[C@H](NC(=O)Cc1ccccc1)C(=O)N[C@@H](CC(=O)O)C(=O)N[C@@H](Cc1ccc(O)cc1)C(=O)N1CCOCC1 [X L D Y Z phenylacetyl morpholinamide] (PhAc-Leu-Asp-Tyr-Morpholide) has a reported RELATIVE POTENCY (relative peptide inhibition of VLA-4 binding CS-1) of 313

Recorded RELATIVE POTENCY (relative peptide inhibition of VLA-4 binding CS-1) (compound `CC(C)C[C@H](NC(=O)Cc1ccccc1)C(=O)N[C@@H](CC(=O)O)C(=O)N[C@H]1Cc2ccccc2[C@H]2CCCCN2C1=O` ): 50

---

subject-of-test: VLA-4 (Homo sapiens, UniProt P05556+P13612)
protocol-text: cell-based
Format: cell-based
Design: host or cells: Jurkat (human T lymphoblastic line)
Method: Binding inhibition is measured here as a concentration of peptide that inhibits one-half the binding between a standard number of Jurkat cells and a standard amount of CS-1 peptide bound to the surface of a microtiter plate well. Those concentrations are conveniently expressed as IC50 values, smaller numbers indicating a lower concentration required to inhibit 50 percent binding and therefore greater potency. Further specifics of this assay are provided hereinafter. […]
Numbered stars: 1 amine (or outer) side, 2 acyl side, 3 side chain; on linkers, the order of the positions; unused ones are H or OH. Square brackets hold non-standard residues; d marks the D form. Peptide text beside a SMILES is read from it. * marks the point of attachment. X20 = O=C(CCCCCO[C@@H]1O[C@H](CO)[C@@H](O)[C@H](O)[C@H]1N[*:1])[*:2]; Quinaldoyl = O=C(c1ccc2ccccc2n1)*; Piperidide = C1CCN(*)CC1
readout-name: RELATIVE POTENCY (relative peptide inhibition of VLA-4 binding CS-1)
Please give the numeric answer without any surrounding text.

Consider the reported RELATIVE POTENCY (relative peptide inhibition of VLA-4 binding CS-1) for these molecules:
molecule: CC(C)C[C@H](NC(=O)CCC1CCCCC1)C(=O)N[C@@H](CC(=O)O)C(=O)N[C@H](C(=O)N1CCC[C@@H]1C(N)=O)C(C)C [X L D V p cyclohexanepropionyl amide]
meas-value: 1
//
molecule: CC(=O)N[C@H]1[C@H](OCCCCCC(=O)N[C@@H](Cc2ccccc2)C(=O)N[C@@H](CC(C)C)C(=O)N[C@@H](CC(=O)O)C(=O)N[C@@H](CC(C)C)C(=O)N2CCCCC2)O[C@H](CO)[C@@H](O)[C@@H]1O (Ac-[X20]FLDL-Piperidide)
meas-value: 41

Now for the molecule whose RELATIVE POTENCY (relative peptide inhibition of VLA-4 binding CS-1) we want.
RELATIVE POTENCY (relative peptide inhibition of VLA-4 binding CS-1) for CC(C)C[C@H](NC(=O)c1ccc2ccccc2n1)C(=O)N[C@@H](CC(=O)O)C(=O)N[C@@H](Cc1ccccc1)C(=O)N1CCC[C@@H]1C(N)=O [X L D F p 2-quinolinecarbonyl amide] (Quinaldoyl-LDF[dP]-NH2) is 4
